The measured values listed here are drawn from patent US20020058247A1.

- MEASUREMENT_TARGET: T1, truncated recombinant form of HBeAg containing nine residues of pre-core and the 150 first residues of HBcAg (hepatitis B virus, UniProt P03146 1-150)
- T1 construct: domain: nine residues of pre-core;range 1-150; also called hepatitis B virus e antigen
- T1 sequence (P03146 1-150): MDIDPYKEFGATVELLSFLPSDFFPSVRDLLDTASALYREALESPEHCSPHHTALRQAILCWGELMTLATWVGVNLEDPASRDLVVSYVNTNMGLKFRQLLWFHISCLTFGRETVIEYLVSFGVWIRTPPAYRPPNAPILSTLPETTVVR
- TEST_SUMMARY: EIA, support-bound peptide, HBeAg 5 ug/ml
QUANTITY_MEASURED: OD (OD)
The answer is to be given in OD; state only the numeric part.

Example binders with recorded OD:
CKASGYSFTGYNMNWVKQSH (also called Peptide # 26) [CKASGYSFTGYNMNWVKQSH (SEQ. ID. No. 29)]
0.091
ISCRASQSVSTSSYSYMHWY [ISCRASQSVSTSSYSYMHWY (SEQ. ID. No. 17)]
0.132
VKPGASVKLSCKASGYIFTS (also called Peptide # 2; Pept. #2) [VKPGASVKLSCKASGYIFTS (SEQ. ID. No. 5)]
0.096
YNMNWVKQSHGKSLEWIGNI (also called Peptide # 27) [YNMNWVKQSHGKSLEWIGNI (SEQ. ID. No. 30)]
0.029
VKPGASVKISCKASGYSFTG (also called Peptide # 25) [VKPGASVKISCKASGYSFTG (SEQ. ID. No. 28)]
0.05

Req: Form field: reported OD of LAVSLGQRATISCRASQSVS [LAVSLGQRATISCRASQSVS (SEQ. ID. No. 16)]
Resp: 0.038
